- experimental system: rat P2X4R (rP2X4R) (Rattus norvegicus)
- Sequence (P51577 whole entry): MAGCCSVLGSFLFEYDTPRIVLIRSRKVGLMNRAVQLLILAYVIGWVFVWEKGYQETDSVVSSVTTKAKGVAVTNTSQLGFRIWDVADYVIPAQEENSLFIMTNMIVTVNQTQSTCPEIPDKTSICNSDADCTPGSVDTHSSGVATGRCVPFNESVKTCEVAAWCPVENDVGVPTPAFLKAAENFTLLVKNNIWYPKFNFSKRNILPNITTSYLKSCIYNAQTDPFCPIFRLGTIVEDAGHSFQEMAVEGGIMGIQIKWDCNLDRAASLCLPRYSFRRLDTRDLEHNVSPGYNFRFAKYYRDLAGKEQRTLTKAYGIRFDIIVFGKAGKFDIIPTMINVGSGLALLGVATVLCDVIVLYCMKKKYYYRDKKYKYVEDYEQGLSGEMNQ
- protocol notes: cell-based
observation type: EC50

What measured EC50 is associated with `Nc1ncnc2c1ncn2[C@@H]1O[C@H](COP(=O)(O)OP(=O)(O)OP(=O)(O)O)[C@@H](O)[C@H]1O` on rat P2X4R (rP2X4R) (Rattus norvegicus)?
4.7 µM
